This collection of values is drawn from ChEMBL document CHEMBL1148331.

# Test system: SK-OV-3
# TEST_METHOD_NOTES: Growth inhibitory potency against NTR-Transfected (nitroreductase) human ovarian cell line known as SKOV3-NTR neo cell line
# Format: functional, cell-based
READOUT_TYPE: IC50
Please don't drop the unit; write it after the number.

// field: IC50; key: `O=C(NCCn1ccnc1)c1cc(N2CC2)c([N+](=O)[O-])cc1[N+](=O)[O-]` ; value = 0.58 µM

// field: IC50; key: `CN(CCN1CCOCC1)C(=O)c1cc(N2CC2)c([N+](=O)[O-])cc1[N+](=O)[O-]` ; value = 13 µM

// field: IC50; key: `NC(=O)c1ccc([N+](=O)[O-])c(N2CC2)c1` ; value = 61 µM

// field: IC50; key: O=C(NCC(O)CO)c1cc(N2CC2)c([N+](=O)[O-])cc1[N+](=O)[O-] (centres undefined) ; value = 2.3 µM
